Provenance of the data: ChEMBL document CHEMBL1128722

- TARGET_SYSTEM: Cathepsin G (Homo sapiens) (UniProt P08311)
- Sequence (P08311 whole entry): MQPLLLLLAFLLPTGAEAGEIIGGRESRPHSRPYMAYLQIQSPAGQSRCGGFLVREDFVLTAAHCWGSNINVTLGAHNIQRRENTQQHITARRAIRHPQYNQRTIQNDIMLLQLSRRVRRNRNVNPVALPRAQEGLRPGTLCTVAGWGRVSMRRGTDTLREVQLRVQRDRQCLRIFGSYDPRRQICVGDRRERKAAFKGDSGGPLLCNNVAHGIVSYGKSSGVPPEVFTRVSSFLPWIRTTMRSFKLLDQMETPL
- MEASUREMENT_NOTES: Inhibition of cathepsin G(Cat G) at 35-710 uM
ATTRIBUTE_MEASURED: inhibition (%)

[[record]]
smiles_str = "O=C(Nc1ccc2c(Cl)c(OCCBr)oc(=O)c2c1)Nc1cccc2ccccc12"
units = "%"
value = 22

[[record]]
smiles_str = "O=C(Cc1ccccc1)Nc1ccc2c(Cl)c(OCCCBr)oc(=O)c2c1"
units = "%"
value = 28

[[record]]
smiles_str = "CC(C)(C)OC(=O)N[C@@H](Cc1ccccc1)C(=O)Nc1ccc2c(Cl)c(OCCBr)oc(=O)c2c1"
units = "%"
value = 19

[[record]]
smiles_str = "O=C(NCc1ccccc1)Nc1ccc2c(Cl)c(OCCBr)oc(=O)c2c1"
units = "%"
value = 23

[[record]]
smiles_str = "CC(C)(C)OC(=O)N[C@H](Cc1ccccc1)C(=O)Nc1ccc2c(Cl)c(OCCBr)oc(=O)c2c1"
units = "%"
value = 19

[[record]]
smiles_str = "O=C(Nc1ccccc1)Nc1ccc2c(Cl)c(OCCCBr)oc(=O)c2c1"
units = "%"
value = 17

[[record]]
smiles_str = "C[C@@H](NC(=O)Nc1ccc2c(Cl)c(OCCBr)oc(=O)c2c1)c1ccccc1"
units = "%"
value = 21

[[record]]
smiles_str = "O=C(NCc1ccccc1)Nc1ccc2c(Cl)c(OCCCBr)oc(=O)c2c1"
units = "%"
value = 21

